Value source: ChEMBL document CHEMBL3822384

- target or test system: UniProt O75469
- Sequence (O75469 whole entry): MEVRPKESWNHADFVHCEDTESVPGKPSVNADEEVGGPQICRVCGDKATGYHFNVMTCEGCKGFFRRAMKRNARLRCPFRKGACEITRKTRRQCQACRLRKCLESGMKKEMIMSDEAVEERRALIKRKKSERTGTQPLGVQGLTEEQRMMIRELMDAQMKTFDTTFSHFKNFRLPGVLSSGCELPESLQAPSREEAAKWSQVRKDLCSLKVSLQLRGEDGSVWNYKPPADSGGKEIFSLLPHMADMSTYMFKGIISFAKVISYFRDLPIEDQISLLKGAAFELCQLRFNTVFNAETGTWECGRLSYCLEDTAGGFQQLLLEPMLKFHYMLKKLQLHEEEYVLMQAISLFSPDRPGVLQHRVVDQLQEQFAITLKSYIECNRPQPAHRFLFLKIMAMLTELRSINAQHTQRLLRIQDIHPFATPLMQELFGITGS
- experimental protocol: Agonist activity at PXR expressed in human HepG2 cells after 24 hrs by p3A4-luciferase reporter gene assay
pEC50: −log10 of the molar value.
Record form. Attribute: pEC50. Fill in for each entry.

{"columns": ["smiles record", "pEC50"],
 "data": [
  ["COc1cccc(-c2nc(OC)c3ccccc3n2)c1", "< 5.52"],
  ["COc1cccc(-c2nc3ccccc3c(=S)[nH]2)c1", 6.07]
]}

*Q* If you can, please state the reported pEC50 value of COc1cccc(-c2nc(SC)c3ccccc3n2)c1 .
*A* < 5.46
